# TARGET OF ASSAY: GlcNAc(a1-4)Gal(b1-4)GlcNAc(b1-3)Gal(b1-4)GlcNAc
# EXPERIMENTAL DETAILS: glycan array binding signal (z-score within array); higher = stronger binding
# SETUP CONDITIONS: glycan notation: IUPAC condensed, linker removed
The entries come from a sample that favours the strongest signals as a whole.
Quick reference for glycan array binding signal (z-score) among some binders
PROPERTY: glycan array binding signal (z-score)

- BINDER: "Cohesin-hDECTIN-1 (Homo sapiens) (protein) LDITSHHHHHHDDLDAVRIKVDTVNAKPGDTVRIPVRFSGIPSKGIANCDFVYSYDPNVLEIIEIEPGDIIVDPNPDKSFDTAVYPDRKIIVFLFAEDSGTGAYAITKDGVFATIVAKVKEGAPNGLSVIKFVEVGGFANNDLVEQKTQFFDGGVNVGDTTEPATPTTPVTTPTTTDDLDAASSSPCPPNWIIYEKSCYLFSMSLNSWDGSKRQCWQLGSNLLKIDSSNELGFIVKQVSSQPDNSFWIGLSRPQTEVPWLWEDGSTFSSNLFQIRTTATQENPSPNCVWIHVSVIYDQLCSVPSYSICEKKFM"
  PROPERTY: "glycan array binding signal (z-score)"
  MEASURED: -0.476
- BINDER: "XTP3-B-MRH1 (Homo sapiens), Q96DZ1 (protein) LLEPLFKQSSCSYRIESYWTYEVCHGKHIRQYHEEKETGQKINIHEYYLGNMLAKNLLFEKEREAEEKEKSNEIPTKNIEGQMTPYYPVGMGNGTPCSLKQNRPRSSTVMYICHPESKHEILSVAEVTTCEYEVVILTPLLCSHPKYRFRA"
  PROPERTY: "glycan array binding signal (z-score)"
  MEASURED: -0.549
- BINDER: "SJA (Sophora japonica) (protein) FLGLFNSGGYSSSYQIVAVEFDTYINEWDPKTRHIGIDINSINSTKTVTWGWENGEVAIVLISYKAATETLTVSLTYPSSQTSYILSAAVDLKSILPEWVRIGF"
  PROPERTY: "glycan array binding signal (z-score)"
  MEASURED: -0.229

Where do these numbers come from? They come from the supplement of paper PMC8728848.
